Molecular target: Bcat-Halo (UniProt P35222)
Sequence (P35222 whole entry): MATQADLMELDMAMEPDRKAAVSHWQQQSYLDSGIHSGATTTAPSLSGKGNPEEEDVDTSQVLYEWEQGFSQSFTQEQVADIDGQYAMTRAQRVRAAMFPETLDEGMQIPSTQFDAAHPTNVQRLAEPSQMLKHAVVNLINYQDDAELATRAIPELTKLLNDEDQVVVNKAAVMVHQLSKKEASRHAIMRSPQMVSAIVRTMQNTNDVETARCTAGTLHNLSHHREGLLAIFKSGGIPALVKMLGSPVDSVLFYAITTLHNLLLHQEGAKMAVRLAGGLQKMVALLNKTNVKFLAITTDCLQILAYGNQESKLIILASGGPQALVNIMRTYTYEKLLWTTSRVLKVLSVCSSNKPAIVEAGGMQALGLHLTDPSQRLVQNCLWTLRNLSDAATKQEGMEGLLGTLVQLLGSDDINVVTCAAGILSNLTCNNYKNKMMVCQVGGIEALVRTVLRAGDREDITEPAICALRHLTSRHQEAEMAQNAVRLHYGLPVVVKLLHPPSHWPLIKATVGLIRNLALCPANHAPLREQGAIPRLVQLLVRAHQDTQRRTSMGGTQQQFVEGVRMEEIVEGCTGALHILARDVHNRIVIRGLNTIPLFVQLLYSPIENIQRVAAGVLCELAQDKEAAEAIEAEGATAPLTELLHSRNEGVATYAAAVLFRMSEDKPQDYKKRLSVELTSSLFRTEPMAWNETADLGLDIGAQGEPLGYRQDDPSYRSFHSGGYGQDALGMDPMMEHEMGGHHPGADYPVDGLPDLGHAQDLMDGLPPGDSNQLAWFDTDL
Assay: NanoBRET absolute IC50 in HEK293 cells; Bcat-Halo, competitor TCF4-Luc
Starred links: 1 amine or outer side, 2 acyl side, 3 side chain; linkers in the order of their positions; H or OH if unused. Positions of bridges follow the written chain, without caps; N, C: chain ends. Non-standard residues stand in square brackets, D forms with d. Primed or numbered codes have the meaning given here. PyrS2″ = (S)-3-amino-1-((pent-4-en-1-yloxy)carbonyl)pyrrolidine-3-carboxylic acid (stapling residue), C=CCCCOC(=O)N1CC[C@@](N[*:1])(C(=O)[*:2])C1; B5(4) = 2,2-bis(4-pentenyl)glycine = 2-amino-2-(pent-4-en-1-yl)hept-6-enoic acid (stitching residue), C=CCCCC(CCCC=C)(N[*:1])C(=O)[*:2]; B5(5) = 2,2-bis(4-pentenyl)glycine, 2-amino-2-(pent-4-en-1-yl)hept-6-enoic acid (stitching residue), C=CCCCC(CCCC=C)(N[*:1])C(=O)[*:2]; Phe(2-Cl) = N[C@@H](Cc1ccccc1Cl)C(=O)O; Phe(2-F) = N[C@@H](Cc1ccccc1F)C(=O)O; Bta = N[C@@H](Cc1csc2ccccc12)C(=O)O; αAllylPro = C=CC[C@@]1(C(=O)O)CCCN1; tBuAla = CC(C)(C)C[C@H](N)C(=O)O; 3Thi = N[C@@H](Cc1ccsc1)C(=O)O
Returns: string. Value is condition met if measured IC50 is below 10 µM, and condition not met if it is greater than or equal to it.

[
  {
    "Binder": "Ac-[αAllylPro]D[tBuAla][B5(4)]DSAAFL[PyrS2″][3Thi][Bta]Q-NH2 (staple 1-4, 4-11) [I-1443]",
    "Qualitative label": "condition met"
  },
  {
    "Binder": "Ac-[αAllylPro]D[tBuAla][B5(5)]DDAAFT[PyrS2″][Phe(2-F)][Bta]Q-NH2 (staple 1-4, 4-11) [I-1021]",
    "Qualitative label": "condition not met"
  },
  {
    "Binder": "Ac-[αAllylPro]D[tBuAla][B5(5)]DNAAFT[PyrS2″][Phe(2-F)][Bta]Q-NH2 (staple 1-4, 4-11) [I-1022]",
    "Qualitative label": "condition not met"
  },
  {
    "Binder": "Ac-[αAllylPro]E[tBuAla][B5(5)]DDAAFN[PyrS2″][Phe(2-Cl)][Bta][dT]-NH2 (staple 1-4, 4-11) [I-1029]",
    "Qualitative label": "condition not met"
  },
  {
    "Binder": "Ac-[αAllylPro]D[tBuAla][B5(5)]DEAAFL[PyrS2″][3Thi][Bta]Q-NH2 (staple 1-4, 4-11) [I-1437]",
    "Qualitative label": "condition met"
  },
  {
    "Binder": "Ac-[αAllylPro]D[tBuAla][B5(5)]DDAAFS[PyrS2″][Phe(2-Cl)][Bta][dT]-NH2 (staple 1-4, 4-11) [I-1032]",
    "Qualitative label": "condition not met"
  },
  {
    "Binder": "Ac-[αAllylPro]D[tBuAla][B5(5)]DEAAFS[PyrS2″][Phe(2-Cl)][Bta][dT]-NH2 (staple 1-4, 4-11) [I-1036]",
    "Qualitative label": "condition not met"
  }
]

These measurements were taken from patent US20240116985A1.
